B1: C2orf65 (parent)
chain: QLDWDELETNQQHFHALCHSLLVS

Variants of: B1
Assay: protein stability index of a GFP-peptide fusion (GPS, HEK-293T) (PSI 1-6); higher = more stable;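 note: lentivirally expressed fusions sorted by FACS into six bins by GFP to DsRed ratio, PSI derived from sequencing read proportions per bin multiplied by bin number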
Conditions: c terminus: a fixed tail appended
Output fulfilled for protein stability index not less than 2; output not fulfilled otherwise.

Kindly determine if protein stability index recorded for D3Q is above or exactly 2. fulfilled

Can you handle Q11G next? fulfilled

Can you handle A16V next? not fulfilled

Can you handle C18Q next? fulfilled

Can you handle D3A next? fulfilled

Can you handle T9S next? fulfilled

Can you handle S20I next? fulfilled

Can you handle L17M next? fulfilled

Can you handle H13M next? not fulfilled

Can you handle L2P next? fulfilled

Can you handle F14E next? fulfilled

Can you handle H15F next? not fulfilled

Can you handle L2Q next? fulfilled

Can you handle H19Y next? not fulfilled

Can you handle W4S next? fulfilled

Can you handle T9V next? fulfilled

Can you handle S20C next? not fulfilled

Can you handle F14I next? fulfilled

Can you handle Q12V next? fulfilled

Can you handle Q11L next? fulfilled

Can you handle A16I next? fulfilled

Can you handle L2S next? fulfilled

Can you handle D3L next? not fulfilled

Can you handle N10R next? fulfilled

Can you handle L7R next? fulfilled

Can you handle F14T next? fulfilled

Can you handle T9A next? fulfilled

Can you handle E6P next? fulfilled

Can you handle F14W next? fulfilled

Can you handle C18V next? fulfilled

Can you handle E8Y next? not fulfilled

Can you handle H19G next? fulfilled

Can you handle H19D next? fulfilled

Can you handle D5E next? fulfilled

Can you handle D5V next? not fulfilled

Can you handle L7M next? not fulfilled

Can you handle T9G next? fulfilled

Can you handle S20E next? not fulfilled

Can you handle A16R next? fulfilled

Can you handle C18W next? fulfilled

Can you handle F14L next? fulfilled

Can you handle L17F next? not fulfilled

Can you handle Q1G next? fulfilled

Can you handle H15M next? fulfilled

Can you handle A16P next? fulfilled

Can you handle F14S next? fulfilled

Can you handle T9W next? not fulfilled

Can you handle L17I next? fulfilled

Can you handle Q12C next? fulfilled

Can you handle T9Y next? not fulfilled

Can you handle T9H next? fulfilled

Can you handle T9F next? not fulfilled

Can you handle N10P next? fulfilled

Can you handle D5Y next? fulfilled

Can you handle C18F next? fulfilled

Can you handle D5L next? not fulfilled

Can you handle F14R next? fulfilled

Can you handle E6G next? fulfilled

Can you handle L17G next? fulfilled

Can you handle D3R next? not fulfilled

Can you handle Q12D next? fulfilled

Can you handle H19R next? not fulfilled

Can you handle H13F next? fulfilled

Can you handle W4I next? fulfilled

Can you handle D5Q next? not fulfilled

Can you handle F14D next? fulfilled

Can you handle W4H next? fulfilled

Can you handle T9R next? not fulfilled

Can you handle Q1N next? fulfilled

Can you handle Q1H next? fulfilled

Can you handle L17W next? fulfilled

Can you handle Q1Y next? not fulfilled

Can you handle H19P next? fulfilled

Can you handle T9L next? not fulfilled

Can you handle W4N next? fulfilled

Can you handle L17C next? fulfilled

Can you handle N10E next? fulfilled

Can you handle F14Y next? fulfilled
